# Tested on: RARa homodimer (NR concentration 270 nM)
# PROTOCOL_DESCRIPTION: PBM binding z-score (relative to random genomic background probes); higher = stronger binding; sequences stand for … in GC…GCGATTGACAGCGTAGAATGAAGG
Kind request: treat -0.3 as inclusive, so PBM binding z-score at -0.3 or higher is satisfied, anything lower is not satisfied.

Completed entries (count: 6):
Would you say CCTACTGGGCCACGAAAGTTCATTGATTCAGTGA shows PBM binding z-score at minimum -0.3?
not satisfied

Would you say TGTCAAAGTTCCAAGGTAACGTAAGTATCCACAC shows PBM binding z-score at minimum -0.3?
satisfied

Would you say CCTAGCATGCCAGGGTCACTCAAGCATTTCGCTT shows PBM binding z-score at minimum -0.3?
not satisfied

Would you say GAAACGAGGGCAAAGTTGATAGCATCTGTCGACG shows PBM binding z-score at minimum -0.3?
satisfied

Would you say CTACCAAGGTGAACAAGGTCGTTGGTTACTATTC shows PBM binding z-score at minimum -0.3?
satisfied

Would you say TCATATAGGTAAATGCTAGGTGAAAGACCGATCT shows PBM binding z-score at minimum -0.3?
satisfied

Further cases:
Would you say CCGACTGTGGCAGAAAGGTTACCATACCATCCGG shows PBM binding z-score at minimum -0.3?
satisfied

Would you say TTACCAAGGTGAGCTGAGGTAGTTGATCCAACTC shows PBM binding z-score at minimum -0.3?
not satisfied

----------
# Tested on: PPARg:RXRa 270nM:90nM, anti-RXR (NR concentration 270 nM, RXRa partner concentration 90 nM)
# PROTOCOL_DESCRIPTION: PBM binding z-score (relative to random genomic background probes); higher = stronger binding; sequences stand for … in GC…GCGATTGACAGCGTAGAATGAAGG
ASSAY_METRIC: PBM binding z-score
Field format: numeric only.

GET /value?item= AATACAGGGTCACCGTAGGCCAGAGTACGCACAG &field=PBM binding z-score returns 6.83

GET /value?item= TAGCATAGGTCAGATCGGGCCAGTATACGCTATA &field=PBM binding z-score returns 1.67

GET /value?item= ATCTCTAGGTAAAAGGTCAGTGAATCCCGAGGAT &field=PBM binding z-score returns 8.92

GET /value?item= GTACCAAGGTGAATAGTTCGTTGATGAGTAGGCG &field=PBM binding z-score returns 1.06

GET /value?item= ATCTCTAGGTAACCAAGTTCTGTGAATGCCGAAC &field=PBM binding z-score returns 0.795

----------
# Tested on: PXR homodimer (NR concentration 270 nM)
# PROTOCOL_DESCRIPTION: PBM binding z-score (relative to random genomic background probes); higher = stronger binding; sequences stand for … in GC…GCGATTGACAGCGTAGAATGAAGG
ASSAY_METRIC: PBM binding z-score

GET /value?item= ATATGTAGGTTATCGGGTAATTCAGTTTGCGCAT &field=PBM binding z-score returns 1.15

In the following, a different sequence is considered.
GET /value?item= CCTCGCAGGCCAGGGTCACTCAAGCATTTCGCTT &field=PBM binding z-score returns -0.431

----------
List of PBM binding z-score values.
# Tested on: RARa homodimer (NR concentration 270 nM)
# PROTOCOL_DESCRIPTION: PBM binding z-score (relative to random genomic background probes); higher = stronger binding; sequences stand for … in GC…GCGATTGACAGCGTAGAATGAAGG
Field format: numeric only.

Example results:
GET /value?item= CGAACTAGGTCAGAACAGGGCAGTGAAGGATGAT &field=PBM binding z-score returns 0.0682

GET /value?item= CTCGAAAGGTCGGTTGAGCTGAGTATACGGATAA &field=PBM binding z-score returns 0.167

Further cases:
GET /value?item= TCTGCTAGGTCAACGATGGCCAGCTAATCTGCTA &field=PBM binding z-score returns -0.648
